This listing pairs sequences with measured PBM E-score.
# system: Hmlalpha2 (UniProt P0CY09)
# Sequence: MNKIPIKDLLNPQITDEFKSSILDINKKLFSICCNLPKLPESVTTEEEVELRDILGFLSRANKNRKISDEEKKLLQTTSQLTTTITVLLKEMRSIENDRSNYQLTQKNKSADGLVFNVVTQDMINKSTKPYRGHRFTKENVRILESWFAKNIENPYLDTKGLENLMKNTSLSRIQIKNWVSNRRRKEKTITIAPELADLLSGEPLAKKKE
# protocol-notes: PBM E-score (8-mer binding enrichment) (E-score (-0.5 to 0.5)); higher = stronger / more preferred TF binding
# particulars: protein concentration: 200 nM; construct: GST-full length
In all, about 33,000 sequences were measured (“E-score (-0.5 to 0.5)”: median about -0.04, highest 2% from about 0.36 on). The list comes from a sample in which the highest values are over-represented; it also holds close analogues and randomly drawn sequences.
quantity-name: PBM E-score

{"seq-text": "ACACGACG", "value-reported": 0.42}
{"seq-text": "AGGGGTTG", "value-reported": -0.253}
{"seq-text": "CGTGTTTA", "value-reported": 0.436}
{"seq-text": "ACGTTAAT", "value-reported": 0.304}
{"seq-text": "CTTTCATA", "value-reported": 0.162}
{"seq-text": "GCAGCTCA", "value-reported": -0.181}
{"seq-text": "CGGTGCGA", "value-reported": -0.141}
{"seq-text": "GTCGACCA", "value-reported": -0.0364}
{"seq-text": "CCTGTTAC", "value-reported": 0.176}
{"seq-text": "AACTCACT", "value-reported": 0.0592}
{"seq-text": "ATAATGTA", "value-reported": 0.273}
{"seq-text": "AGACGCCG", "value-reported": -0.154}
{"seq-text": "CCCAAAGA", "value-reported": -0.0661}
{"seq-text": "TAATATTA", "value-reported": 0.379}
{"seq-text": "ACATGTGG", "value-reported": 0.312}
{"seq-text": "TATCCTCA", "value-reported": -0.113}
{"seq-text": "CTACACTA", "value-reported": 0.208}
{"seq-text": "CCGGTTTA", "value-reported": 0.0123}
{"seq-text": "ACATATGT", "value-reported": 0.369}
{"seq-text": "AGATGTAC", "value-reported": 0.121}
{"seq-text": "CCACCAGG", "value-reported": -0.268}
{"seq-text": "AGACGACG", "value-reported": -0.129}
{"seq-text": "AAATGCCG", "value-reported": -0.02}
{"seq-text": "ATTACGTG", "value-reported": 0.452}
{"seq-text": "CTTACGTA", "value-reported": 0.307}
{"seq-text": "ACCCTTAA", "value-reported": -0.0263}
{"seq-text": "ATTACGTA", "value-reported": 0.431}
{"seq-text": "GACTGACC", "value-reported": -0.192}
{"seq-text": "GAATTAGC", "value-reported": -0.0766}
{"seq-text": "ACATATTG", "value-reported": 0.142}
{"seq-text": "ACAGAGAG", "value-reported": -0.0914}
{"seq-text": "CGTGTTAG", "value-reported": 0.431}
{"seq-text": "CAATATTA", "value-reported": 0.213}
{"seq-text": "CGATTTTA", "value-reported": 0.081}
{"seq-text": "AACCTCAA", "value-reported": 0.0617}
{"seq-text": "AATACGTA", "value-reported": 0.317}
{"seq-text": "CCAGGTAC", "value-reported": -0.122}
{"seq-text": "GTAATGTA", "value-reported": 0.413}
{"seq-text": "AATACGTG", "value-reported": 0.383}
{"seq-text": "TCATGTAA", "value-reported": 0.482}
{"seq-text": "ACTAAACA", "value-reported": 0.196}
{"seq-text": "AGTGTTTA", "value-reported": 0.299}
{"seq-text": "CCACGACG", "value-reported": -0.097}
{"seq-text": "ATGCTGTG", "value-reported": 0.238}
{"seq-text": "GTCATGGA", "value-reported": -0.188}
{"seq-text": "TCAAGTAA", "value-reported": 0.265}
{"seq-text": "CGTAACAA", "value-reported": 0.228}
{"seq-text": "CCCTTAGA", "value-reported": -0.353}
{"seq-text": "GCATGTCA", "value-reported": 0.36}
{"seq-text": "CCACGACC", "value-reported": -0.0888}
{"seq-text": "GTCATGCA", "value-reported": 0.133}
{"seq-text": "AGTATTAA", "value-reported": 0.249}
{"seq-text": "AAGACAGT", "value-reported": -0.0478}
{"seq-text": "CGACACGC", "value-reported": 0.243}
{"seq-text": "GGAAAGTA", "value-reported": -0.136}
{"seq-text": "GGTGTTTA", "value-reported": 0.112}
{"seq-text": "ACATATTA", "value-reported": 0.389}
{"seq-text": "ATCATGTG", "value-reported": 0.209}
{"seq-text": "AGAGCCGA", "value-reported": -0.106}
{"seq-text": "GTCGCCAC", "value-reported": -0.316}
{"seq-text": "CAGTGTGG", "value-reported": -0.13}
{"seq-text": "GCATGTAA", "value-reported": 0.485}
{"seq-text": "GGTATTAA", "value-reported": 0.083}
